- test_summary: Kinetic aqueous solubility of the compound in PBS buffer incubated for 5 mins by turbidimetric aqueous solubility assay
- Type: physicochemical
- measurement_conditions: read-out: Kinetic_solubility
Label rule, in plain words: solubility kinetic at 5 min of 8 µM and up is 1 (yes), under 8 µM is 0 (no).

>  <chemical_string>
N#Cc1ccc(NCc2cnc(-c3ccc(Oc4ccccc4)cc3)s2)cn1

>  <label_class>
0 (no)

$$$$
>  <chemical_string>
FC(F)(F)c1cc(NCc2nnc(-c3ccc(Oc4ccccc4)cc3)[nH]2)ccn1

>  <label_class>
1 (yes)

$$$$
>  <chemical_string>
CN(C)c1ccc(-c2ncc(CNc3ccnc(C(F)(F)F)c3)s2)cc1

>  <label_class>
1 (yes)

$$$$
>  <chemical_string>
FC(F)(F)c1cc(SCc2cnc(-c3ccc(Oc4ccccc4)cc3)s2)ccn1

>  <label_class>
0 (no)

$$$$
>  <chemical_string>
CC(C)Nc1ccc(-c2ncc(CNc3ccnc(C(F)(F)F)c3)s2)cc1

>  <label_class>
1 (yes)

$$$$
>  <chemical_string>
Clc1cc(NCc2cnc(-c3ccc(Oc4ccccc4)cc3)s2)ccn1

>  <label_class>
0 (no)

$$$$
>  <chemical_string>
FC(F)(F)c1cc(NCc2nc(-c3ccc(Oc4ccccc4)cc3)cs2)ccn1

>  <label_class>
1 (yes)

$$$$
>  <chemical_string>
FC(F)(F)c1cc(NCc2ncc(-c3ccc(Oc4ccccc4)cc3)s2)ccn1

>  <label_class>
1 (yes)

$$$$
>  <chemical_string>
FC(F)(F)c1cc(NCc2cnc(-c3ccc(Cl)cc3)s2)ccn1

>  <label_class>
1 (yes)

$$$$
>  <chemical_string>
FC(F)(F)c1cc(NCc2ccc(-c3ccc(Oc4ccccc4)cc3)o2)ccn1

>  <label_class>
1 (yes)

$$$$

###

Collected viability at 25 µM values appear next to each entry.
- test_summary: Cytotoxicity against human HepG2 cells assessed as viable cells at 25 uM relative to control
- Assay type: toxicity, cell-based
- measurement_conditions: read-out: Activity
measured_property: viability at 25 µM (%)

>  <chemical_string>
FC(F)(F)c1cc(NCc2cn(-c3ccc(Oc4ccccc4)cc3)nn2)ccn1

>  <measured_property>
viability at 25 µM

>  <unit_tag>
%

>  <measured_value>
55

$$$$
>  <chemical_string>
CC(C)Oc1ccc(-c2ncc(CNc3ccnc(C(F)(F)F)c3)s2)cc1Cl

>  <measured_property>
viability at 25 µM

>  <unit_tag>
%

>  <measured_value>
49

$$$$
>  <chemical_string>
CC(C)Oc1ccc(-c2ncc(CNc3ccnc(C#N)c3)s2)cc1Cl

>  <measured_property>
viability at 25 µM

>  <unit_tag>
%

>  <measured_value>
59

$$$$

###

- test_summary: Lipophilicity, log D of the compound
- Assay type: physicochemical
- measurement_conditions: octanol/water
measured_property: logD

>  <chemical_string>
FC(F)(F)c1cc(NCc2cc(-c3ccc(Oc4ccccc4)cc3)n[nH]2)ccn1

>  <measured_property>
logD

>  <measured_value>
4.35

$$$$
>  <chemical_string>
FC(F)(F)c1cc(NCc2csc(-c3ccc(Oc4ccccc4)cc3)n2)ccn1

>  <measured_property>
logD

>  <measured_value>
5.04

$$$$
>  <chemical_string>
FC(F)(F)c1cc(OCc2cnc(-c3ccc(Oc4ccccc4)cc3)s2)ccn1

>  <measured_property>
logD

>  <measured_value>
3.87

$$$$
>  <chemical_string>
FC(F)(F)c1cc(NCc2cc(-c3ccc(Oc4ccccc4)cc3)no2)ccn1

>  <measured_property>
logD

>  <measured_value>
5.04

$$$$
>  <chemical_string>
CC(C)Oc1ccc(-c2ncc(CNc3cc(Cl)nc(Cl)c3)s2)cc1

>  <measured_property>
logD

>  <measured_value>
5.62

$$$$
>  <chemical_string>
COc1ccc(-c2ncc(CNc3ccnc(C(F)(F)F)c3)s2)cc1C

>  <measured_property>
logD

>  <measured_value>
4.02

$$$$
>  <chemical_string>
Clc1cc(NCc2cnc(-c3ccc(Oc4ccccc4)cc3)s2)ccn1

>  <measured_property>
logD

>  <measured_value>
4.16

$$$$
>  <chemical_string>
FC(F)(F)c1cc(NCc2nnc(-c3ccc(Oc4ccccc4)cc3)o2)ccn1

>  <measured_property>
logD

>  <measured_value>
4.12

$$$$
>  <chemical_string>
FC(F)(F)c1cc(NCc2cnc(-c3ccc(Cl)cc3)s2)ccn1

>  <measured_property>
logD

>  <measured_value>
4.28

$$$$
>  <chemical_string>
CC(C)Oc1ccc(-c2ncc(CNc3ccnc(C#N)c3)s2)cc1Cl

>  <measured_property>
logD

>  <measured_value>
4.83

$$$$
>  <chemical_string>
CC(C)Oc1ccc(-c2ncc(CNc3cc(Cl)nc(C(F)(F)F)c3)s2)cc1

>  <measured_property>
logD

>  <measured_value>
5.4

$$$$
>  <chemical_string>
N#Cc1ccc(NCc2cnc(-c3ccc(Oc4ccccc4)cc3)s2)cn1

>  <measured_property>
logD

>  <measured_value>
3.52

$$$$
>  <chemical_string>
FC(F)(F)c1ccc(NCc2cnc(-c3ccc(Oc4ccccc4)cc3)s2)cn1

>  <measured_property>
logD

>  <measured_value>
3.42

$$$$
>  <chemical_string>
FC(F)(F)c1cc(SCc2cnc(-c3ccc(Oc4ccccc4)cc3)s2)ccn1

>  <measured_property>
logD

>  <measured_value>
4.03

$$$$
>  <chemical_string>
FC(F)(F)c1cc(NCc2cnc(-c3ccc(Oc4ccccc4)cc3)s2)ccn1

>  <measured_property>
logD

>  <measured_value>
3.29

$$$$

###

- test_summary: Kinetic aqueous solubility of the compound in PBS buffer incubated for 5 mins by turbidimetric aqueous solubility assay
- Format: physicochemical
- measurement_conditions: read-out: Kinetic_solubility
measured_property: solubility kinetic at 5 min (µM)

>  <chemical_string>
FC(F)(F)c1cc(NCc2nnc(-c3ccc(Oc4ccccc4)cc3)o2)ccn1

>  <measured_property>
solubility kinetic at 5 min

>  <measured_value>
46

$$$$
>  <chemical_string>
N#Cc1ccc(NCc2cnc(-c3ccc(Oc4ccccc4)cc3)s2)nc1

>  <measured_property>
solubility kinetic at 5 min

>  <measured_value>
5

$$$$
>  <chemical_string>
CC(C)Oc1ccc(-c2ncc(CNc3cc(C#N)nc(C(F)(F)F)c3)s2)cc1

>  <measured_property>
solubility kinetic at 5 min

>  <measured_value>
6

$$$$
>  <chemical_string>
CC(C)Oc1ccc(-c2ncc(CNc3ccnc(C(F)(F)F)c3)s2)cc1Cl

>  <measured_property>
solubility kinetic at 5 min

>  <measured_value>
7

$$$$
>  <chemical_string>
CC(C)Oc1ccc(-c2ncc(CNc3cc(Cl)nc(C(F)(F)F)c3)s2)cc1Cl

>  <measured_property>
solubility kinetic at 5 min

>  <measured_value>
7

$$$$
>  <chemical_string>
FC(F)(F)c1cc(NCc2cnc(-c3ccc(Oc4ccccc4)cc3)s2)ccn1

>  <measured_property>
solubility kinetic at 5 min

>  <measured_value>
6

$$$$
>  <chemical_string>
CC(C)Oc1ccc(-c2ncc(CNc3ccnc(C(F)(F)F)c3)s2)cc1

>  <measured_property>
solubility kinetic at 5 min

>  <measured_value>
18

$$$$
>  <chemical_string>
N#Cc1cc(NCc2cnc(-c3ccc(Oc4ccccc4)cc3)s2)ccn1

>  <measured_property>
solubility kinetic at 5 min

>  <measured_value>
7

$$$$
>  <chemical_string>
COc1ccc(-c2ncc(CNc3ccnc(C(F)(F)F)c3)s2)cc1Cl

>  <measured_property>
solubility kinetic at 5 min

>  <measured_value>
25

$$$$
>  <chemical_string>
CC(C)Oc1ccc(-c2ncc(CNc3ccnc(C#N)c3)s2)cc1Cl

>  <measured_property>
solubility kinetic at 5 min

>  <measured_value>
7

$$$$
>  <chemical_string>
FC(F)(F)c1cc(NCc2cnc(-c3ccc(C4CC4)cc3)s2)ccn1

>  <measured_property>
solubility kinetic at 5 min

>  <measured_value>
7

$$$$
>  <chemical_string>
CC(C)Oc1ccc(-c2ncc(CNc3cc(Cl)nc(Cl)c3)s2)cc1

>  <measured_property>
solubility kinetic at 5 min

>  <measured_value>
8

$$$$
>  <chemical_string>
FC(F)(F)c1cc(NCc2cnc(-c3ccc(Cl)nc3)s2)ccn1

>  <measured_property>
solubility kinetic at 5 min

>  <measured_value>
200

$$$$
>  <chemical_string>
COc1ccc(-c2ncc(CNc3ccnc(C(F)(F)F)c3)s2)cc1C

>  <measured_property>
solubility kinetic at 5 min

>  <measured_value>
45

$$$$
>  <chemical_string>
FC(F)(F)c1cc(NCc2cc(-c3ccc(Oc4ccccc4)cc3)no2)ccn1

>  <measured_property>
solubility kinetic at 5 min

>  <measured_value>
8

$$$$
>  <chemical_string>
CC(C)Oc1ccc(-c2ncc(CNc3ccnc(Cl)c3)s2)cc1

>  <measured_property>
solubility kinetic at 5 min

>  <measured_value>
22

$$$$
>  <chemical_string>
FC(F)(F)c1cc(NCc2cnc(-c3ccc(Cl)s3)s2)ccn1

>  <measured_property>
solubility kinetic at 5 min

>  <measured_value>
43

$$$$
